target_entity: Gal(b1-4)GlcNAc(b1-2)[Gal(b1-4)GlcNAc(b1-4)]Man(a1-3)[Gal(b1-4)GlcNAc(b1-2)Man(a1-6)]Man(b1-4)GlcNAc(b1-4)GlcNAc
assay_info: glycan array binding signal (z-score within array); higher = stronger binding
assay_setup: glycan notation: IUPAC condensed, linker removed
Shown is part of a subset that was picked to be rich in the strongest signals.
Use 0.7 as the dividing line for glycan array binding signal (z-score), with the line itself on the 1 (yes) side and lower values as 0 (no).

binder="BC2L-A (Burkholderia cenocepacia), Q1BKJ8_BURCA (protein) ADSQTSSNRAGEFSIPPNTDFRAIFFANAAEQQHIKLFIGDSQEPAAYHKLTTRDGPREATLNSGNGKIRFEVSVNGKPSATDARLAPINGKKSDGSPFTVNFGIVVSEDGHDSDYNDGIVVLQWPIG" label="0 (no)"
binder="SJCP1531 (Schistosoma japonicum) (protein) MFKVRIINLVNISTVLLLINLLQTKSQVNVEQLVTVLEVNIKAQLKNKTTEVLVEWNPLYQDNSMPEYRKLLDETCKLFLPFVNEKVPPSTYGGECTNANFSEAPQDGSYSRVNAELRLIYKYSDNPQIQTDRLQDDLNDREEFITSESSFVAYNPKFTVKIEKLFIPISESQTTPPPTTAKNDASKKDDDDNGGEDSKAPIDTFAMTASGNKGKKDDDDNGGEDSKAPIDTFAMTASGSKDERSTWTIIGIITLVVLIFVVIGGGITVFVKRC" label="1 (yes)"
binder="Pwp1 (Candida glabrata) (protein) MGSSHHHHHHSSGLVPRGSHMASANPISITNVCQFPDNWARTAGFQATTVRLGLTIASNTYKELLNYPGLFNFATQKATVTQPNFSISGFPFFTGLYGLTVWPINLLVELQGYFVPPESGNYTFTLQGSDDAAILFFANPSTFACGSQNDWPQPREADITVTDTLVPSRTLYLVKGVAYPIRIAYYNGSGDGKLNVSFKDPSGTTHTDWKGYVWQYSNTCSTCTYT" label="0 (no)"
binder="Eosinophil-derived neurotoxin (EDN) (Homo sapiens), P10153 (protein) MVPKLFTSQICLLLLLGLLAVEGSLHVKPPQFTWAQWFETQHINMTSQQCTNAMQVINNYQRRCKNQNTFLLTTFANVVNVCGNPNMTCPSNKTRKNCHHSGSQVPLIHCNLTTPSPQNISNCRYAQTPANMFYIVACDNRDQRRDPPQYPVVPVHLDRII" label="0 (no)"
binder="MIC4-A5 (Toxoplasma gondii), Q9XZH7 (protein) SPDFHDEVECVHTGNIGSKAQTIGEVKRASSLSECRARCQAEKECSHYTYNVKSGLCYPKRGKPQFYKYLGDMTGSRTCDTS" label="1 (yes)"
